- Test system: Wolbachia pipientis
- PROTOCOL_DESCRIPTION: Anti-Wolbachia Cell-Based Screen
- Assay type: functional
- Design: scale not given: in the data most compounds retested in dose-response had high values
- CONDITION_PARAMETERS: 5 µM
About 13,000 (27%) of roughly 48,000 compounds showed an effect of 50% or more. The list shows a part of the results.
Percent Effect values by entry
Only the number, expressed in %, is required.

Would you please look over these solved cases?
>  <MOLECULE>
C[C@@H]1CN(Cc2cccc(F)c2)C[C@]12CCN(Cc1cccnc1)C2=O.O=C(O)C(F)(F)F.O=C(O)C(F)(F)F

>  <TARGET_ENTITY>
Wolbachia pipientis

>  <READOUT_UNIT>
%

>  <Percent Effect>
107.3441

$$$$
>  <MOLECULE>
C[C@@H]1CN(Cc2cccnc2)C[C@]12CCN(CCN1CCCC1)C2=O.O=C(O)C(F)(F)F.O=C(O)C(F)(F)F.O=C(O)C(F)(F)F

>  <TARGET_ENTITY>
Wolbachia pipientis

>  <READOUT_UNIT>
%

>  <Percent Effect>
95.13

$$$$

Tell me its Percent Effect given O=C(O)C(F)(F)F.O=C1CC2(CCCCN2CC2CC2)CN1c1ccccc1 (stereo not drawn) as the entry.
-2.383

Tell me its Percent Effect given CN(C)CC(=O)N1CCC2(CC(=O)N(c3cccc(C#N)c3)C2)C1.O=C(O)C(F)(F)F (stereo not drawn) as the entry.
-15.58

Tell me its Percent Effect given CCN1C(=O)C(c2ccccc2)CC12CCN(Cc1cccnc1)CC2.O=C(O)C(F)(F)F.O=C(O)C(F)(F)F (stereo not drawn) as the entry.
-2.584

----------
Percent Effect values by entry
- System: Wolbachia pipientis
- PROTOCOL_DESCRIPTION: Anti-Wolbachia Cell-Based Screen
- Type: functional
- Set-up: scale not given: in the data most compounds retested in dose-response had high values
- CONDITION_PARAMETERS: 5 µM
About 13,000 (27%) of roughly 48,000 compounds showed an effect of 50% or more. The list shows a part of the results.
Note: a bare number is incomplete; add the unit.

Would you please look over these solved cases?
>  <COMPOUND>
COC(=O)C1CN(Cc2cc(F)ccc2Br)CCO1 (stereo unspecified)

>  <MEASURED_PARAMETER>
Percent Effect

>  <RESULT>
-7.364%

$$$$
>  <COMPOUND>
CS(=O)(=O)NCCC1CCCN(Cc2ccccc2F)C1 (stereo unspecified)

>  <MEASURED_PARAMETER>
Percent Effect

>  <RESULT>
-31.18%

$$$$
>  <COMPOUND>
C[C@@H]1CN(Cc2cc(C(F)(F)F)ccc2F)CC[C@@]1(O)C1CC1

>  <MEASURED_PARAMETER>
Percent Effect

>  <RESULT>
18.84%

$$$$
>  <COMPOUND>
COc1coc(CN2CCCC(CCc3ccc(F)c(F)c3)C2)cc1=O (stereo unspecified)

>  <MEASURED_PARAMETER>
Percent Effect

>  <RESULT>
29.51%

$$$$
>  <COMPOUND>
COc1cc(CN2CC[C@@]3(CCCO3)[C@@H](O)C2)ccc1F

>  <MEASURED_PARAMETER>
Percent Effect

>  <RESULT>
-7.237%

$$$$

Attention now shifts to the item below.
Tell me its Percent Effect given CO[C@H]1CN(Cc2ccccc2F)[C@@H]2CCCO[C@H]12 as the entry.
2.761%

----------
Percent Effect values by entry
- Tested on: Wolbachia pipientis
- PROTOCOL_DESCRIPTION: Anti-Wolbachia Cell-Based Screen
- Format: functional
- Set-up: scale not given: in the data most compounds retested in dose-response had high values
- CONDITION_PARAMETERS: 5 µM
The campaign covered roughly 48,000 compounds. About 13,000 (27%) showed an effect of 50% or more. Some of the results follow.
Only the number, expressed in %, is required.

Would you please look over these solved cases?
>  <MOLECULE>
Cc1noc(-c2cccnc2N2CCN(c3cnn(C)c3)CC2)n1

>  <MEASURED_PARAMETER>
Percent Effect

>  <NUMERIC_READOUT>
-14.91

$$$$
>  <MOLECULE>
CCCN(CCC)C(=O)CN1CCCC1C(=O)N(C)C (centres undefined)

>  <MEASURED_PARAMETER>
Percent Effect

>  <NUMERIC_READOUT>
15.58

$$$$
>  <MOLECULE>
Fc1cc(Oc2ccc(C(F)(F)F)cn2)cc(F)c1CN1CCCC1

>  <MEASURED_PARAMETER>
Percent Effect

>  <NUMERIC_READOUT>
-0.6803

$$$$

Tell me its Percent Effect given CCc1ccc(CN(C)Cc2cnc(S(=O)(=O)CC)n2CCOC)cc1 as the entry.
-8.303

Tell me its Percent Effect given c1cnnc(N2CCCC(NCc3ccc(-n4cncn4)cc3)C2)c1 (centres undefined) as the entry.
-12.46

Tell me its Percent Effect given O=C(O)C(F)(F)F.O=C(c1ccnnc1)N1CCN2C[C@H](Oc3cccc(F)c3)C[C@H]2C1 as the entry.
-26.48

Tell me its Percent Effect given CCc1noc(CNc2c(F)cccc2-n2cccn2)n1 as the entry.
-15.19

Tell me its Percent Effect given Cc1ccc2c(C)c(C(=O)NCc3csc(N)n3)oc2c1 as the entry.
24.68

Tell me its Percent Effect given Clc1ccc(OCCc2cc(C3CCN(c4ncccn4)C3)n[nH]2)cc1 (centres undefined) as the entry.
119.6

Tell me its Percent Effect given Fc1cccnc1Oc1cc(F)c(CN2CCCC2)c(Cl)c1 as the entry.
96.1

Tell me its Percent Effect given COc1cc(-c2noc(C(CC(C)C)N3CCCCC3=O)n2)ccn1 (centres undefined) as the entry.
-8.352

Tell me its Percent Effect given Cc1ccccc1-c1cc(CC2(C(=O)O)CCOCC2)on1 as the entry.
97.16

Tell me its Percent Effect given N#Cc1cccc(N2CCC(CO)(CCOc3ccccc3)CC2)n1 as the entry.
-8.445

Tell me its Percent Effect given Cc1cc(S(=O)(=O)Nc2cccc(I)c2)sc1C(=O)O as the entry.
5.422

----------
- Tested on: Wolbachia pipientis
- PROTOCOL_DESCRIPTION: Anti-Wolbachia Cell-Based Screen
- Type: functional
- Parameters: scale not given: in the data most compounds retested in dose-response had high values
- CONDITION_PARAMETERS: 5 µM
Screen size: about 48,000 compounds; about 13,000 (27%) showed an effect of 50% or more. The list shows a part of the results.
MEASURED_PARAMETER: Percent Effect (%)
Only the number, expressed in %, is required.

Would you please look over these solved cases?
>  <MOLECULE>
Cc1cnc(C)c(-c2cc(O)c3c(c2)CN(c2nccs2)CCO3)n1

>  <Percent Effect / %>
-4.792

$$$$
>  <MOLECULE>
O=C1CC2(CCSC2)C(=O)N1Cc1ncc(-c2ccccc2)o1 (stereo not given)

>  <Percent Effect / %>
-14.26

$$$$
>  <MOLECULE>
N#Cc1ccc(CN2CCCC3(Cc4ccccc4CNC3=O)C2)cc1 (stereo not given)

>  <Percent Effect / %>
129.6

$$$$
>  <MOLECULE>
O=C(CC(F)(F)F)N1C[C@H]2CC[C@@H]1CN(Cc1ccccc1)C2

>  <Percent Effect / %>
-26.8

$$$$

Tell me its Percent Effect given CC(C)(C)CC(NC(=O)c1nc(=O)[nH][nH]1)c1ccc(F)cc1 (stereo not given) as the entry.
-5.789

----------
Percent Effect values by entry
- System: Wolbachia pipientis
- PROTOCOL_DESCRIPTION: Anti-Wolbachia Cell-Based Screen
- Format: functional
- Set-up: scale not given: in the data most compounds retested in dose-response had high values
- CONDITION_PARAMETERS: 5 µM
The campaign covered roughly 48,000 compounds. About 13,000 (27%) showed an effect of 50% or more. The list shows a part of the results.
Only the number, expressed in %, is required.

Would you please look over these solved cases?
>  <MOLECULE>
COC(=O)C1CCCCN1Cc1cccc(C(=O)NCc2ccco2)c1 (stereo unspecified)

>  <TARGET_ENTITY>
Wolbachia pipientis

>  <Percent Effect / %>
0.7191

$$$$
>  <MOLECULE>
CCn1ncnc1CN1CCC(CNC(=O)c2cccnc2O)C1 (stereo unspecified)

>  <TARGET_ENTITY>
Wolbachia pipientis

>  <Percent Effect / %>
102.6

$$$$
>  <MOLECULE>
O=C(NC[C@H]1CCCO1)c1ccc(S(=O)(=O)N2C[C@@H]3C[C@H]2CN3)cc1

>  <TARGET_ENTITY>
Wolbachia pipientis

>  <Percent Effect / %>
-5.829

$$$$
>  <MOLECULE>
CC(C)(C)OC(=O)N[C@H]1CCN(c2cncc(Br)c2)C1

>  <TARGET_ENTITY>
Wolbachia pipientis

>  <Percent Effect / %>
4.915

$$$$
>  <MOLECULE>
O=C(COc1coc(CN2CCCCC2)cc1=O)Nc1ccc(Cl)cc1

>  <TARGET_ENTITY>
Wolbachia pipientis

>  <Percent Effect / %>
-2.562

$$$$

Tell me its Percent Effect given Cn1nccc1C(=O)NCCN1CCC(O)(c2ccc(F)cc2)CC1 as the entry.
137.8

Cited source for all entries: ChEMBL document CHEMBL3988442
